Molecular target: DYRK1A (human)
Experiment: radiometric filter-binding kinase assay
Details: compound 0.1 µM
This section presents compounds with their documented residual activity values.
Provide only the numeric value, understood in %.

Before answering, review these 3 worked examples.
| compound | quantity kind | numeric value |
| --- | --- | --- |
| NC(=O)c1cc(-c2ccnc(NC3CCCCC3)c2)nc(N2CCNCC2)c1 | residual activity | 97 |
| NC1(c2ccc(-c3nc4ccn5c(=O)[nH]nc5c4cc3-c3ccccc3)cc2)CCC1 | residual activity | 95 |
| COc1cc(O)c2c(c1)[C@H]1OC1C[C@H](O)[C@H](O)C(=O)/C=C\C[C@H](C)OC2=O (some centres undefined) | residual activity | 105 |

(Q) Fill blank: measured residual activity of the compound `CN1CCN(CCOc2cc(OC3CCOCC3)c3c(Nc4c(Cl)ccc5c4OCO5)ncnc3c2)CC1` is ____.
(A) 94

(Q) Now try `CCCCCc1ccc(/C=C/[C@H](O)[C@@H](CO)NC)cc1` .
(A) 83
